- study.target: T1, canine beta-NGF (cNGF) (canine, UniProt Q29074 110-229 (pig entry))
- T1 chain: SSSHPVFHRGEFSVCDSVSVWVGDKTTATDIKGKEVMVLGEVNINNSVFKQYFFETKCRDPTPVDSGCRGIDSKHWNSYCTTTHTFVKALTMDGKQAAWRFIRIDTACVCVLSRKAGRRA
- test.description: cell-based or functional assay
In this section we review reported IC50 [nM] (TrkA cell based assay) values for a set of binders.
Write it as a number; the unit nM goes unstated.

Solved cases (2 shown):
binder: H3A02B4VL1 (antibody, V domains shown, Caninized IgG) VH: EVQLVESGGDLARPGGSLKLSCVVSGFTLTQYGINWVRQAPGKGLQWVTVIWATGATDYNSALKSRFTVSRDNAMNTVYLQMNSLRVEDTAVYYCARDGWWYATSWYFDVWGQGTLVTVSS VL: EIVMTQSPASLSLSQEEKVTITCRASQDISNYLNWYQQKPGQAPKLLIYYTSRLHSGVPSRFSGSGSGTDFSFTISSLEPEDVAVYYCQQGNMFPYTFGGGT
measured.quantity: IC50 [nM] (TrkA cell based assay)
numeric.readout: 1.4

binder: H3AQC23L2AL1 (antibody, V domains shown) VH: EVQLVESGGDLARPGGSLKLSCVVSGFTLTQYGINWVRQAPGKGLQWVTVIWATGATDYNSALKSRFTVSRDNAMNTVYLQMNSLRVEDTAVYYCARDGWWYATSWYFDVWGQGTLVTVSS VL: DIVMTQTPLSLSVSPGEPASISCKASQSINHYLNWFRQKPDGTVKLLIYYISSFHSGVPSRFSGSGSGTDFTLRISRVEADDAGVYYCQQSHTLPYTFGQGT
measured.quantity: IC50 [nM] (TrkA cell based assay)
numeric.readout: 4.4

IN: Give its IC50 [nM] (TrkA cell based assay) value. Item: H3AQC23L5A (antibody, V domains shown, Caninized IgG) VH: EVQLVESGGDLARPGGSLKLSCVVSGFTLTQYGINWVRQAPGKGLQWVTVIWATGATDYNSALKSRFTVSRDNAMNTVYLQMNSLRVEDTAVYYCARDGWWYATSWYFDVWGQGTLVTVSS VL: DIVMTQTPLSLSVSPGEPASISCKASQDINHYLNWFRQKPDGTVKLLIYYTSSLHSGVPSRFSGSGSGTDFTLRISRVEADDAGVYYCQQGDHFPRTFGQGT
OUT: 2.32
